targetDesc: MOS1 (Drosophila mauritiana)
Construct: involving the full-length Mos1 transposase (MOS1) was recently solved; made in house
Sequence (Q7JQ07 whole entry): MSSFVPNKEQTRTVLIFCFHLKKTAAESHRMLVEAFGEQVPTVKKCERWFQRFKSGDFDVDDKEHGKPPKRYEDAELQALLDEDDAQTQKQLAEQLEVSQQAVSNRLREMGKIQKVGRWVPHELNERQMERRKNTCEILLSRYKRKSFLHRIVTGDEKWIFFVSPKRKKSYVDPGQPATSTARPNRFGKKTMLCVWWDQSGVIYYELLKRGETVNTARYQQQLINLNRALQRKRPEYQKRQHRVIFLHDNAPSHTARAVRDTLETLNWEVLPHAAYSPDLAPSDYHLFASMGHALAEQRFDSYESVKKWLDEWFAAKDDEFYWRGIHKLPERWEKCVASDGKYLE
assayProtocol: MOS1 in vitro activities, overall statements of the discussion
Type: biochemical, D. mauritiana
conditionNotes: in vitro assays of MOS1 activities; discussion
measuredProperty: activity on MOS1

- molecule: "OCC1OC(Oc2cc(O)cc(C=Cc3ccc(O)cc3)c2)C(O)C(O)C1O (stereo not shown)"
  result: "not active"
- molecule: "COc1cc(/C=C/c2ccc(O)cc2)cc(OC)c1"
  result: "not active"

These data points were gathered from paper PMC3842960.
